Conditions: pH 7.5
Reported Metric: Log P

Look over these answered cases.
Compound	Meas Value
CCOC(=O)C(C#N)=C(NC[Si](C)(C)C)c1cccnc1Cl [Compound 1085]	3.46
CCOC(=O)C(C#N)=C(NC(C)C(C)C)c1cccnc1-c1ccc(Cl)cc1 (centres unmarked) [Compound 974]	4.08

P = CC(NC(=C(C#N)C(=O)OC(C)(C)C)c1cccnc1Cl)c1nccs1 (centres unmarked) [Compound 25]
Q = COC(=O)C(C#N)=C(NC(C)C(N)=O)c1cccnc1Cl (centres unmarked) [Compound 563]
Return label of the item with the larger Log P. Candidates: P , Q . Pick one; state its label.
P
(P: 3.07, Q: 1.18)

###

Details: pH 7.5
Reported Metric: Log P

Look over these answered cases.
Compound	Reported Metric	Meas Value
CCOC(=O)C(C#N)=C(Nc1ccc(F)cc1F)c1cccnc1Cl	Log P	2.9
CCOC(=O)C(C#N)=C(NC(C)CSC#N)c1cccnc1Cl (stereo not drawn)	Log P	2.35
CC(C)OC(=O)C(C#N)=C(NC(C)c1nccs1)c1cccnc1Cl (stereo not drawn)	Log P	2.7
COC(=O)C(C#N)=C(NC(C)c1nc2ccccc2s1)c1cccnc1Cl (stereo not drawn)	Log P	2.95
C=CCOC(=O)C(C#N)=C(NC(C)c1nccs1)c1ccc(Cl)nc1Cl (stereo not drawn)	Log P	3.16

P = CCOC(=O)C(C#N)=C(NC(C)C(C)C)c1cccnc1-c1ccc(OC(F)(F)F)cc1 (stereo not drawn)
Q = COCC(C)NC(=C(C#N)C(=O)OC)c1cccnc1Cl (racemic)
Would you mind telling me which has the lower recorded Log P between P and Q ? Pick one; state its label.
Q
(Q: 2.13, P: 4.41)

###

Conditions: pH 7.5
Reported Metric: Log P

Molecule	Reported Metric	Meas Value
CC(C)OC(=O)C(C#N)=C(NC(C)c1nc2ccccc2s1)c1cccnc1Cl (centres unmarked)	Log P	3.63
CCOCCOC(=O)C(C#N)=C(NC(C)c1nccs1)c1cccnc1Cl (centres unmarked)	Log P	2.4
CCOC(=O)C(C#N)=C(NC(C)c1ccccn1)c1ccc(C)nc1Cl (centres unmarked)	Log P	2.67
CCOC(=O)C(C#N)=C(NC(C)C(C)C)c1cccnc1-c1ccc(C(F)(F)F)cc1 (centres unmarked)	Log P	4.25
C#CCOC(=O)C(C#N)=C(NC(C)c1nccs1)c1cccnc1Cl (racemic)	Log P	2.26
CC(C)C(C)NC(=C(C#N)C(=O)NCC(F)(F)F)c1cccnc1Cl (centres unmarked)	Log P	3.16
CCOC(=O)C(C#N)=C(NC(C)C=NOC)c1cccnc1Cl (mixture of isomers)	Log P	2.49

###

Details: LogP, preparation examples; HPLC method ([a], [b] or [c]) not stated
Reported Metric: chromatographic logP
Returns: the value as a bare number; no unit string appended.

Look over these answered cases.
Compound	chromatographic logP
CCOC(=O)/C(C#N)=C(\NC(C)c1ccc(Cl)nc1)c1cccnc1Cl (stereo not drawn)	2.8
CCOC(=O)/C(C#N)=C(\N[C@H](C)C(=O)NC)c1scc(C)c1Cl	3.61
N#CC=C(Cl)c1cccnc1Cl	1.94

Just so you know, measured chromatographic logP for CCNC(=S)/C(C#N)=C(\NC1CC1CC)c1cccnc1Cl (stereo not drawn) came out at 3.87

Just so you know, measured chromatographic logP for CCC1CC1N/C(=C/C#N)c1cccnc1Cl (stereo not drawn) came out at 2.53

Just so you know, measured chromatographic logP for CCOC(=O)C(C#N)=C(Cl)c1scc(C)c1Cl came out at 3.65

###

Log P values by entry
Settings: pH 2.7
Marks after values point to notes of the source that are not given here.

Just so you know, measured Log P for COC(=O)C(C#N)=C(NC(C)c1cccc(OC)c1)c1cccnc1Cl (stereo not drawn) came out at 2.89^[a]

Just so you know, measured Log P for CCOC(=O)C(C#N)=C(NC1CC1CC)c1cn(C)nc1C(F)F (stereo not drawn) came out at 3.04^[a]

Just so you know, measured Log P for CCOC(=O)C(C#N)=C(NC(C)c1c(Cl)cccc1Cl)c1cccnc1Cl (stereo not drawn) [Compound 1523] came out at 3.73^[a]

###

Details: pH 2.7
Marks after values point to notes of the source that are not given here.
Log P values by entry

Look over these answered cases.
Compound	Reported Metric	Meas Value
CCOC(=O)C(C#N)=C(NC(C)CC(C)C)c1sccc1Br (racemic)	Log P	4.46^[a]
CCOC(=O)C(C#N)=C(NCc1nc2ccccc2s1)c1sc(C)nc1C(F)(F)F	Log P	3.48^[a]
CCCCCCC(C)NC(=C(C#N)C(=O)OCC)c1sc(C)nc1C(F)(F)F (racemic)	Log P	5.22^[a]

Just so you know, measured Log P for CCOC(=O)C(C#N)=C(NC(C)C1=NCCS1)c1cccnc1Cl (centres unmarked) came out at 2.5^[a]

Just so you know, measured Log P for CCOC(=O)C(C#N)=C(NC(C)c1nccs1)c1sccc1Br (centres unmarked) came out at 3.13^[a]

###

Conditions: pH 2.7
Marks after values point to notes of the source that are not given here.
Reported Metric: Log P

Look over these answered cases.
Compound	Reported Metric	Meas Value
CCOC(=O)C(C#N)=C(NC(C)COCc1ccccc1Cl)c1cccnc1Cl (centres unmarked) [Compound 1172]	Log P	4.06^[a]
CCOC(=O)C(C#N)=C(NCc1ccccn1)c1ncc(C(F)(F)F)cc1Cl [Compound 42]	Log P	2.98^[a]
CCOC(=O)C(C#N)=C(NC(C)CCc1ccccc1)c1ccsc1Br (racemic) [Compound 538]	Log P	4.56^[a]
CC(C)C(C)NC(=C(C#N)C(=O)NC1CC1)c1cn(C)nc1C(F)F (centres unmarked) [Compound 1006]	Log P	2.66^[a]

Just so you know, measured Log P for CCOC(=O)C(C#N)=C(NC(C)c1cccs1)c1ccsc1Br (racemic) [Compound 250] came out at 3.99^[a]

Just so you know, measured Log P for COC(=O)C(C#N)=C(NCc1ncc(C)s1)c1sc(C)nc1C(F)(F)F [Compound 183] came out at 2.63^[a]

Just so you know, measured Log P for CCOC(=O)C(C#N)=C(NC(C)c1ccc(F)cc1)c1sccc1C(F)(F)F (mixture of isomers) [Compound 438] came out at 4.14^[a]

Just so you know, measured Log P for CCOC(=O)C(C#N)=C(Nc1ccccc1SC)c1nsc(Cl)c1Cl [Compound 358] came out at 4.31^[a]

###

Settings: pH 7.5
Reported Metric: Log P

Compound	Meas Value
CCOC(=O)C(C#N)=C(NC(C)C(C)C)c1cccnc1Cl (centres unmarked) [Compound 984]	3.22
CC(C)C(C)NC(=C(C#N)C(=O)NC1COC1)c1cccnc1Cl (centres unmarked) [Compound 1455]	2.26
CCOC(=O)C(C#N)=C(NC(C)C1CC1)c1ccc(C)nc1Cl (centres unmarked) [Compound 881]	3.32
CCOC(=O)C(C#N)=C(NC(C)C(C)C)c1cccnc1-c1ccc(OC)cc1 (centres unmarked) [Compound 1472]	3.59
COC(=O)C(C#N)=C(NC(C)c1nccs1)c1sccc1Cl (centres unmarked) [Compound 18]	2.59

###

Conditions: pH 2.7
Marks after values point to notes of the source that are not given here.
Log P values by entry

Look over these answered cases.
Molecule	Log P
CCOC(=O)C(C#N)=C(NC(C)CF)c1cc(Cl)sc1Cl (centres unmarked)	3.49^[a]
CCOC(=O)C(C#N)=C(Nc1ccc(OC)cc1)c1sc(C)nc1C(F)(F)F	3.44^[a]

Just so you know, measured Log P for CCOC(=O)C(C#N)=C(NC(C)C(=O)NC)c1cn(C)nc1C(Cl)Cl (centres unmarked) came out at 3.9^[a]

Just so you know, measured Log P for C=CCCCC(C=C)NC(=C(C#N)C(=O)OCC)c1ccsc1Br (racemic) came out at 4.67^[a]

Just so you know, measured Log P for CCOC(=O)C(C#N)=C(NC(C(=O)OC)c1ccccc1)c1cccnc1Cl (centres unmarked) came out at 3.08^[a]

Just so you know, measured Log P for CCOC(=O)C(C#N)=C(NCC1(C)CCCO1)c1cn(C)nc1C(F)F (centres unmarked) came out at 2.54^[a]

Just so you know, measured Log P for CCOC(=O)C(C#N)=C(NC(C)c1nccs1)c1ncccc1Br (racemic) came out at 2.53^[a]

###

Conditions: pH 2.3
Reported Metric: Log P

Molecule	Log P
COC(=O)C(C#N)=C(NCc1ccc(Cl)cc1)c1cccnc1Cl	2.98
CCOC(=O)C(C#N)=C(NC1CCSC1=O)c1cccnc1Cl (racemic)	2.42
CCN(C)C(=O)C(C#N)=C(NC(C)C(C)C)c1cccnc1Cl (stereo not shown)	2.91
CCOC(=O)C(C#N)=C(NC(C)C(F)(F)F)c1cccnc1OC (racemic)	3.05

1 = C#CCNC(=O)C(C#N)=C(NC(C)C(C)C)c1cccnc1Cl (stereo not shown)
2 = CCOC(=O)C(C#N)=C(Nc1ccccc1SC)c1cc(Cl)cnc1Cl
Would you mind telling me which has the lower recorded Log P between 1 and 2 ? Pick one; state its label.
1

Numbers sourced from patent US8476197B2.
